# assay_summary: Comment Code material properties: vapor pressure, ClogP, probability of ingredient color instability, odor detection threshold, melamine formaldehyde PMC headspace response ratio and leakage, liquid dish neat product liquid-air partition coefficient
# Type: physicochemical
# condition_notes: cell strings several class symbols together; each letter is one property class of L1
reported_metric: Comment Code

[[record]]
given_smiles = "CC=Cc1ccc(OCC)c(O)c1"
result = "CEFHK"


* * *

# assay_summary: Comment Code material properties: vapor pressure, ClogP, probability of ingredient color instability, odor detection threshold, melamine formaldehyde PMC headspace response ratio and leakage, liquid dish neat product liquid-air partition coefficient
# Type: physicochemical
# condition_notes: Table 1 materials; each letter of the code is one property class (vapor pressure, ClogP, color instability, odor detection threshold, PMC headspace ratio, PMC leakage, liquid dish liquid-air partition coefficient)
reported_metric: Comment Code

[[record]]
molecule = "CCCCCC(=Cc1ccccc1)COC(C)=O"
reported_metric = "Comment Code"
result = "DEFHJ"

[[record]]
molecule = "CCCCCCC/C=C/C=O"
reported_metric = "Comment Code"
result = "ADHKL"

[[record]]
molecule = "CC1=CC[C@@H]2C3CC([C@@H]2C1)[C@@]1(C3)OC1C (stereo partly drawn)"
reported_metric = "Comment Code"
result = "DEFHJK"

[[record]]
molecule = "CC1(C)CCC[C@@]2(C)[C@H]1CC[C@]13CO[C@](C)(CC[C@@H]12)O3"
reported_metric = "Comment Code"
result = "DEFHJ"

[[record]]
molecule = "CC1=C2CC(C(C)(C)O)CCC2(C)CCC1 (stereo not drawn)"
reported_metric = "Comment Code"
result = "DFHJK"

[[record]]
molecule = "C=CC(=C)CCC=C(C)CCC=C(C)C=O"
reported_metric = "Comment Code"
result = "DHJK"

[[record]]
molecule = "CC(C)Cc1ccc(CC(C)C=O)cc1 (stereo not drawn)"
reported_metric = "Comment Code"
result = "DHJK"

[[record]]
molecule = "CCCCCC=CC=CC(=O)OCC"
reported_metric = "Comment Code"
result = "BDEFHJK"

[[record]]
molecule = "CC(=O)O[C@]1(C)CC[C@@]23C[C@@H]1C(C)(C)[C@@H]2CC[C@H]3C"
reported_metric = "Comment Code"
result = "DEFHJK"

[[record]]
molecule = "C=C(C)C1CC=C(CO)CC1 (stereo not drawn)"
reported_metric = "Comment Code"
result = "CHIJK"

[[record]]
molecule = "CC1CC2CCC3C(C2O1)C(C)(C)C(C)C3(C)C (stereo not drawn)"
reported_metric = "Comment Code"
result = "BDEFHJK"

[[record]]
molecule = "COC(=O)c1ccccc1N=CC1CC(C)=CC(C)C1 (stereo not drawn)"
reported_metric = "Comment Code"
result = "DEFHJ"

[[record]]
molecule = "CCCCCC(C=O)=Cc1ccc(C)cc1"
reported_metric = "Comment Code"
result = "DHJ"

[[record]]
molecule = "CC(=O)OC12CCCC(C)(CCC3C1CC3(C)C)C2 (stereo not drawn)"
reported_metric = "Comment Code"
result = "DEFHJK"

[[record]]
molecule = "CC(C)C1OCCC2(CC3CCC2(C)C3(C)C)O1 (stereo not drawn)"
reported_metric = "Comment Code"
result = "DEFHJK"

[[record]]
molecule = "CC1=CC2C(CC1)C(C)=CCC2C(C)C (stereo not drawn) [Material 717]"
reported_metric = "Comment Code"
result = "DEFHJKL"

[[record]]
molecule = "CC1=CC(C)C2(CCCC(C)(C)C2=O)CC1 (stereo not drawn)"
reported_metric = "Comment Code"
result = "DHIJK"

[[record]]
molecule = "CC(C)=CCC/C(C)=C/CO"
reported_metric = "Comment Code"
result = "BCHIK"

[[record]]
molecule = "CC(=O)CCc1ccc2c(c1)OCO2"
reported_metric = "Comment Code"
result = "CEFGJ"

[[record]]
molecule = "C=C[C@](C)(O)CC[C@@H]1[C@@]2(C)CCCC(C)(C)[C@@H]2CC[C@@]1(C)O"
reported_metric = "Comment Code"
result = "DEFHJ"

[[record]]
molecule = "CC(=O)OC1C2(C)CCC(C2)C1(C)C (stereo not drawn)"
reported_metric = "Comment Code"
result = "ADEFHIJKL"

[[record]]
molecule = "COc1ccc(CC(C)C=O)cc1 (stereo not drawn)"
reported_metric = "Comment Code"
result = "BCHJK"

[[record]]
molecule = "CCC(C)CCC(C)(CC)OC(C)=O (stereo not drawn)"
reported_metric = "Comment Code"
result = "ADEFHIJKL"

[[record]]
molecule = "CCCCCCCCCC(=O)O"
reported_metric = "Comment Code"
result = "DEFHJK"

[[record]]
molecule = "CC(=O)OC(C)CC/C=C(\\C)CCC=C(C)C (stereo not drawn)"
reported_metric = "Comment Code"
result = "DEFHJK"

[[record]]
molecule = "C=C1C=CC(C(C)CCC=C(C)C)CC1 (stereo not drawn)"
reported_metric = "Comment Code"
result = "DEFHJK"

[[record]]
molecule = "CC(C)=CCCC(C)C12CC=C(C)C1C2 (stereo not drawn)"
reported_metric = "Comment Code"
result = "DEFHJKL"

[[record]]
molecule = "CC1=C2CCC(C)C2CC(C(C)(C)O)CC1 (stereo not drawn)"
reported_metric = "Comment Code"
result = "DEFHJK"

[[record]]
molecule = "CC1=CCCC2(C)CCC(C(C)(C)O)CC12 (stereo not drawn) [Material 712]"
reported_metric = "Comment Code"
result = "DEFHJK"

[[record]]
molecule = "C=CCOC(=O)CCC1CCCCC1"
reported_metric = "Comment Code"
result = "BDEFHJK"

[[record]]
molecule = "C/C(=C/C#N)CCc1ccccc1"
reported_metric = "Comment Code"
result = "DEFHJK"

